system: Nrf2; experiment: Evaluation of Nrf2 activation ability (Nrf2d-LacZ / Keap1 HEK293 reporter, Beta-Glo luminescence); assay type: cell-based, human; conditions: rated A/B/C, Pharmacological Test Example 1
pEC50: −log10 of the molar value.
VALUE_TYPE: pEC50

COc1ccc2c(cnn2-c2cc(O)n[s+]2[O-])c1 (centres unmarked) | 5.30 to 6.00
[O-][s+]1nc(O)cc1-n1ccc(-c2cccc(Br)c2)n1 (centres unmarked) | > 6.00
CN1CCN(c2cc(-c3ccc4c(cnn4-c4cc(O)n[s+]4[O-])c3)ccn2)CC1 (centres unmarked) [Example 52] | > 6.00
COc1cc2cnn(-c3cc(O)n[s+]3[O-])c2cn1 (centres unmarked) | > 6.00

[in] Looking for the measured pEC50 of [O-][s+]1nc(O)cc1-n1ncc2cc(-c3ccc(N4CCC(F)(F)C4)nc3)ccc21 (centres unmarked) , can you help?
[out] > 6.00

[in] What do you have for Cn1cc(-c2ccc3c(cnn3-c3cc(O)n[s+]3[O-])c2)cn1 (centres unmarked) ?
[out] > 6.00

[in] Field entry: [O-][s+]1nc(O)cc1-n1ncc2cc(-c3cnc4c(c3)OCCN4)ccc21 (centres unmarked)
[out] 5.30 to 6.00

[in] Continue with [O-][s+]1nc(O)cc1-n1ncc2cc(-c3ccc(F)cc3)ccc21 (centres unmarked)
[out] > 6.00

---

tested on: Nrf2; assay: Evaluation of Nrf2 activation ability (Nrf2d-LacZ / Keap1 HEK293 reporter, Beta-Glo luminescence); type: cell-based, human; settings: rated A/B/C, Pharmacological Test Example 1
pEC50: −log10 of the molar value.
VALUE_TYPE: pEC50

# example entries with known answers
[O-][s+]1nc(O)cc1-n1ncc2cc(-c3cnc4c(c3)OCCCN4)ccc21 (stereo not drawn) [Example 190] | > 6.00
Cn1nc(-c2ccc3c(cnn3-c3cc(O)n[s+]3[O-])c2)c2ccccc21 (stereo not drawn) [Example 224] | > 6.00
COc1cc(-c2cccnc2)c2cnn(-c3cc(O)n[s+]3[O-])c2c1 (stereo not drawn) [Example 166] | 5.30 to 6.00
COc1cc(-c2cccnc2)cc2c1cnn2-c1cc(O)n[s+]1[O-] (stereo not drawn) [Example 199] | 5.30 to 6.00
CC(C)(C)OC(=O)N1CC=C(c2ccc3c(cnn3-c3cc(O)n[s+]3[O-])c2)CC1 (stereo not drawn) [Example 44] | > 6.00
[O-][s+]1nc(O)cc1-n1ncc2cc(C3=CCC(F)(F)CC3)ccc21 (stereo not drawn) [Example 39] | > 6.00
[O-][s+]1nc(O)cc1-n1ncc2cc(Br)ccc21 (stereo not drawn) [Example 2] | > 6.00
[O-][s+]1nc(O)cc1-n1ncc2c(C3=CCOCC3)cccc21 (stereo not drawn) [Example 95] | 5.00 to 5.30
N#Cc1cccc(-c2ccc3c(cnn3-c3cc(O)n[s+]3[O-])c2)n1 (stereo not drawn) [Example 120] | 5.30 to 6.00
[O-][s+]1nc(O)cc1-n1cc(C2CCCCC2)cn1 (stereo not drawn) [Example 306] | 5.30 to 6.00

[in] Identify the measured pEC50 of [O-][s+]1nc(O)cc1-n1cc2c(n1)CCN(Cc1ccccc1)C2 (single isomer, unassigned) [Example 256] for Nrf2.
[out] 5.30 to 6.00

[in] Repeat for the following compound: [O-][s+]1nc(O)cc1-n1ncc2cc(-c3ccc(N4CCC5(COC5)C4)nc3)ccc21 (stereo not drawn) [Example 161]
[out] > 6.00

[in] Do the same for COc1cc(Br)cc2c1cnn2-c1cc(O)n[s+]1[O-] (stereo not drawn) [Example 177] please
[out] > 6.00

[in] Can you handle COc1cccc(-c2ccc3c(cnn3-c3cc(O)n[s+]3[O-])c2)n1 (stereo not drawn) [Example 129] next?
[out] > 6.00

[in] Also O=C(c1ccc(-c2ccc3c(cnn3-c3cc(O)n[s+]3[O-])c2)cn1)N1CCCC1 (stereo not drawn) [Example 157] , if possible.
[out] 5.30 to 6.00

[in] Also, [O-][s+]1nc(O)cc1-n1ncc2cc(-c3cccc(C(F)(F)F)n3)ccc21 (stereo not drawn) [Example 130] please.
[out] > 6.00

[in] # repeat for CN1CCOc2ncc(-c3ccc4c(cnn4-c4cc(O)n[s+]4[O-])c3)cc21 (stereo not drawn) [Example 165]
[out] 5.30 to 6.00

[in] Same lookup for Cc1cnc(-c2ccc3c(cnn3-c3cc(O)n[s+]3[O-])c2)cn1 (stereo not drawn) [Example 123] , please.
[out] > 6.00
